# Tested on: HepG2
# procedure-summary: MTT cell proliferation assay, HepG2
# Format: cell-based
# test-parameters: Homo sapiens; HepG2, cancer cells
quantity-kind: pIC50
Please note pIC50 is a logarithmic value: minus log10 of concentration in mol/L. Answer with that number alone.

pIC50 measured on CC[C@H]1C[C@@H]2CN3CCc4c([nH]c5ccc(OC)cc45)[C@](C(=O)OC)(C2)C13 = 4.38

---

# System: CHANG
# procedure-summary: MTT cell proliferation assay, CHANG
# Type: cell-based
# test-parameters: normal cells
quantity-kind: IC50 (µM)
A number alone suffices; assume µM.

IC50 measured on CC[C@H]1C[C@@H]2CN3CCc4c([nH]c5ccc(OC)cc45)[C@](C(=O)OC)(C2)C13 = 26
